These entries and their values trace back to paper PMC11555526.

subject.of.test: TTK (MV4-11^HiBiT-TTK cells) (Homo sapiens, UniProt P33981)
Construct: expressed in transfected cells; host or cells: MV4-11, lentiviral transduction (pRRL-PGK-HiBiT entry vector)
Sequence (P33981 whole entry): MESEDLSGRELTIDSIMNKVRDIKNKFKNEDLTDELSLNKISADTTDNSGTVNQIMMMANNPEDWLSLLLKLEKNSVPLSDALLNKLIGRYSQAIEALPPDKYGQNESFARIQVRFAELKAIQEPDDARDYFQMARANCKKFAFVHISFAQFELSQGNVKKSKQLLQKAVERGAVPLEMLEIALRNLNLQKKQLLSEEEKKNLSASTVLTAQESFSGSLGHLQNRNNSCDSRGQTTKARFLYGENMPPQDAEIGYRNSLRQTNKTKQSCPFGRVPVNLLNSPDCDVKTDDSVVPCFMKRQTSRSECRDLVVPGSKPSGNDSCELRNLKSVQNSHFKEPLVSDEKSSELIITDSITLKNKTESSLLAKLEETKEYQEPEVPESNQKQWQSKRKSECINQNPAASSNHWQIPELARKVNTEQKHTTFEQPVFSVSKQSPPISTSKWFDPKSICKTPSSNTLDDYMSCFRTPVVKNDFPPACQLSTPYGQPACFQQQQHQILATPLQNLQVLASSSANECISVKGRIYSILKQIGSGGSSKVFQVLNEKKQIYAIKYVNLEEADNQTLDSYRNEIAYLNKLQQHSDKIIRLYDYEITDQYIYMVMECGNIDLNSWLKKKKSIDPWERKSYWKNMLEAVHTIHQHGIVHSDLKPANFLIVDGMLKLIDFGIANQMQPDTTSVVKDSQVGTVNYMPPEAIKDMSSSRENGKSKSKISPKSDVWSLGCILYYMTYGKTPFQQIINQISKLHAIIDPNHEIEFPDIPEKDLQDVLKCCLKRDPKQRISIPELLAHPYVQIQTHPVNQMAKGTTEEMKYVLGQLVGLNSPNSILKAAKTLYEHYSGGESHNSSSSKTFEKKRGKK
test.summary: HiBiT assay, TTK degradation
Assay type: cell-based
Design: key: compounds with degradation less than 15% reported as “inactive”
measurement.parameters: 6 h treatment, MV4-11^HiBiT-TTK cells
property.measured: Dmax (maximal degradation) TTK

As a guide, the following entries are already answered.
molecule	Dmax (maximal degradation) TTK
Cc1ncsc1-c1ccc(CNC(=O)[C@@H]2C[C@@H](O)CN2C(=O)[C@@H](NC(=O)CCC(=O)NCC(=O)N2CCN(c3ccc(Nc4nc(Nc5ccccc5S(=O)(=O)C(C)C)c5nc[nH]c5n4)cc3)CC2)C(C)(C)C)cc1	inactive
O=C1CCC(N2C(=O)c3cccc(NC(=O)COCCOCC(=O)N4CCN(c5ccc(Nc6nc(NC7CCCCC7)c7nc[nH]c7n6)cc5)CC4)c3C2=O)C(=O)N1 (centres unmarked)	39.40%
CC(C)S(=O)(=O)c1ccccc1Nc1nc(Nc2ccc(N3CCN(C(=O)CCCC(=O)Nc4cccc5c4C(=O)N(C4CCC(=O)NC4=O)C5=O)CC3)cc2)nc2[nH]cnc12 (centres unmarked)	28.50%
CC(C)S(=O)(=O)c1ccccc1Nc1nc(Nc2ccc(N3CCN(C(=O)CNC(=O)CCCC(=O)Nc4cccc5c4C(=O)N(C4CCC(=O)NC4=O)C5=O)CC3)cc2)nc2[nH]cnc12 (centres unmarked)	48.33%

Could you now consider this next molecule?
**Q:** Dear colleague, I am looking for the recorded Dmax (maximal degradation) TTK of the following molecule: COc1cc(N2CCC(OCC(=O)NCCCNc3cccc4c3C(=O)N(C3CCC(=O)NC3=O)C4=O)CC2)ccc1Nc1nc(Nc2ccccc2S(=O)(=O)C(C)C)c2nc[nH]c2n1 (centres unmarked)
**A:** inactive
